Across several publications, the following Ki results were reported for Prothrombin (Homo sapiens).
Kindly provide the numeric value in nM only, without the unit symbol.

molecule=N[C@@H](C(=O)N1CCC[C@H]1C(=O)NCc1ccncc1)C(c1ccccc1)c1ccccc1 reported_value=1210
molecule=CC(=O)N1CCC(Oc2ccc(NC/C=C/c3cc(C(=N)N)ccc3O)cc2C(F)(F)F)CC1 reported_value=480
molecule=COC(=N)NS(=O)(=O)c1ccc(OC)cc1 reported_value=276
molecule=O=C(Cn1c(Cl)cnc(NCC(F)(F)c2cccc[n+]2[O-])c1=O)NCc1ccccc1OC(F)(F)F reported_value=2.4
molecule="N=C(N)N1CCCC(CNC(=O)[C@H](Cc2c[nH]c3ccccc23)NS(=O)(=O)c2ccc3ccccc3c2)C1 (stereo partly drawn)" reported_value=660
molecule="COC(=O)C1C/C(=C/c2ccc(C(=N)N)cc2)C(=O)/C(=C\\c2ccc(C(=N)N)cc2)C1 (stereo not drawn)" reported_value=1100
molecule="CC(=O)N[C@H](Cc1ccccc1)C(=O)N1CCC[C@H]1C(=O)N[C@@H](CCCn1ncnc1[N+](=O)[O-])B1O[C@@H]2CC3CC(C3(C)C)[C@]2(C)O1 (stereo partly drawn)" reported_value=199
molecule=N=C(N)c1cccc(-n2nccc2C(=O)Nc2ccc(-c3ccccc3S(N)(=O)=O)cc2)c1 reported_value=900
molecule=Cc1cc(OCC/C=N/N=C(N)N)cc(OS(=O)(=O)c2ccccc2S(C)(=O)=O)c1 reported_value=20
molecule=N=C(N)NS(=O)(=O)c1cccc2ccccc12 reported_value=136

Case N=C(N)c1cccc(CC(NS(=O)(=O)c2cccc(-c3cccnc3)c2)C(=O)N2CCC(CCN)CC2)c1 (racemic) , Prothrombin (Homo sapiens), Ki recorded as 150

Case `N=C(N)c1ccc(CNC(=O)c2cc3c(O)cccc3n2Cc2cccc(C(=N)N)c2)cc1` , Prothrombin (Homo sapiens), Ki recorded as 4200

Case `CC(C)CCCN1CCC[C@H]1C(=O)NCc1ccc(C(=N)N)cc1` , Prothrombin (Homo sapiens), Ki recorded as 22000

Case Cc1cc(C)cc(C(C)(C)CN(CC(=O)NC(CCC/N=C/N)B(O)O)C(=O)CCc2ccccc2)c1 (stereo not drawn) , Prothrombin (Homo sapiens), Ki recorded as 0.53

Case `N=C(N)c1ccc(Oc2cc(NC(=O)[C@H]3CC[C@H](N)CC3)cc(Oc3ccc(C(=N)N)cc3)c2)cc1` , Prothrombin (Homo sapiens), Ki recorded as 2220

Case `CCS(=O)(=O)c1ccc2cc1CNC(=O)[C@H](Nc1ccc3c(N)nccc3c1)c1ccc(c(C)c1)CCCC(=O)N2` , Prothrombin (Homo sapiens), Ki recorded as 6700

Case `Nc1ccc(CNC(=O)[C@@H]2CCCN2C(=O)[C@H](N)C(c2ccccc2)c2ccccc2)cn1` , Prothrombin (Homo sapiens), Ki recorded as 12

Case `Cc1cc(NS(=O)(=O)c2ccccc2)cc(OCCNc2ccncc2)c1` , Prothrombin (Homo sapiens), Ki recorded as 23

----------
Across several publications, the following Ki results were reported for Prothrombin (Homo sapiens, UniProt P00734).

Case `Nc1ncc(C(=O)NC[C@@H]2CN(c3ccc(N4CCC(C(=O)O)CC4)cc3)C(=O)O2)s1.O=C(O)C(F)(F)F` , Prothrombin (Homo sapiens, UniProt P00734), Ki recorded as > 100 µM

Case `Cc1ccc2c(Cl)c(C(=O)Nc3ccc(Cl)cc3C(=O)Nc3ccc(Cl)cc3)sc2c1` , Prothrombin (Homo sapiens, UniProt P00734), Ki recorded as > 5 µM

Case `CO[C@H](CO)C(=O)N[C@H](C(=O)N1[C@H](C(=O)NCCC2=CC[N+](=C(N)N)C2)C[C@@H]2C[C@H](O)[C@@H](O)C[C@@H]21)C(C)C` , Prothrombin (Homo sapiens, UniProt P00734), Ki recorded as > 5.1 µM
